- tested-on: T1, TGFβR2.B3.F8 I-OnuI HE variant (yeast surface display) (Artificial Sequence (parent Ophiostoma …))
- T1 chain: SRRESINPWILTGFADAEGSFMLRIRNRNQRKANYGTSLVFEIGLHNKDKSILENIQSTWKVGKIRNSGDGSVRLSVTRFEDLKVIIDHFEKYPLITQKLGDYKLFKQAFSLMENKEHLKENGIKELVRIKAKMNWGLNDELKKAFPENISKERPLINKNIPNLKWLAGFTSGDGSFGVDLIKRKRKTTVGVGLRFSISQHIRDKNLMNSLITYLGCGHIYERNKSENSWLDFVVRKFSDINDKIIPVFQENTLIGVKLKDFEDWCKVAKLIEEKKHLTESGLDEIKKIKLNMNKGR
- measurement-protocol: flow; sub-nanomolar affinity stated; yeast surface affinity titration, exact value only in figure
- conditions-used: tags: yeast surface display
pKd: −log10 of the molar value.
readout: pKd

Prompt: Return reported pKd. Input binder: TGFβR2 exon 6 I-OnuI HE variant target site (dsDNA) DNA 1: CGACCAGAAATTCCCAGCTTCT DNA 2: AGAAGCTGGGAATTTCTGGTCG
Completion: > 9.00
